tested on: Enterococcus faecalis; assay: Antibacterial activity against Enterococcus faecalis clinical isolate assessed as inhibition of bacterial growth incubated for 24 hrs; type: functional
reportedMetric: MIC (µg/mL)
# output: bare number, implied unit µg/mL

Challenge: Report MIC for `N#CCc1cc2c(cc1F)c(=O)c(C(=O)O)cn2Cc1ccc(C(F)(F)F)cc1`
Response given: 0.5

Challenge: Report MIC for `CCn1cc(C(=O)O)c(=O)c2cc(F)c(CC(=O)O)cc21`
Response given: 0.5

Challenge: Report MIC for `N#CCc1cc2c(cc1F)c(=O)c(C(=O)O)cn2Cc1ccc(F)cc1F`
Response given: 256

Challenge: Report MIC for `N#CCc1cc2c(cc1F)c(=O)c(C(=O)O)cn2Cc1ccc([N+](=O)[O-])cc1`
Response given: 8

Challenge: Report MIC for `N#CCc1cc2c(cc1F)c(=O)c(C(=O)O)cn2CC1CCC1`
Response given: 32

Challenge: Report MIC for `CCCCCn1cc(C(=O)O)c(=O)c2cc(F)c(CC#N)cc21`
Response given: 256

Challenge: Report MIC for `N#CCc1cc2c(cc1F)c(=O)c(C(=O)O)cn2Cc1ccc(Cl)c(Cl)c1`
Response given: 256

Challenge: Report MIC for `N#CCc1cc2c(cc1F)c(=O)c(C(=O)O)cn2Cc1cccc(Cl)c1`
Response given: 256

Challenge: Report MIC for `CCCCCCCCn1cc(C(=O)O)c(=O)c2cc(F)c(CC#N)cc21`
Response given: 256

Challenge: Report MIC for `N#CCc1cc2c(cc1F)c(=O)c(C(=O)O)cn2CC1CC1`
Response given: 64

Challenge: Report MIC for NC1CCN(c2c(F)cc3c(=O)c(C(=O)O)cn(C4CC4)c3c2Cl)C1 (centres undefined)
Response given: 4

Challenge: Report MIC for `N#CCc1cc2c(cc1F)c(=O)c(C(=O)O)cn2Cc1ccc(Cl)cc1`
Response given: 256

Challenge: Report MIC for `CC(C)=CCn1cc(C(=O)O)c(=O)c2cc(F)c(CC#N)cc21`
Response given: 128

Challenge: Report MIC for `CCn1cc(C(=O)O)c(=O)c2cc(F)c(CC#N)c(F)c21`
Response given: 8

Challenge: Report MIC for `Cc1ccc(Cn2cc(C(=O)O)c(=O)c3cc(F)c(CC#N)cc32)cc1`
Response given: 4

Challenge: Report MIC for `N#CCc1cc2c(cc1F)c(=O)c(C(=O)O)cn2Cc1cc(F)ccc1F`
Response given: 256

Challenge: Report MIC for `CCCCCCCCn1cc(C(=O)O)c(=O)c2cc(F)c(CC(=O)O)cc21`
Response given: 2

Challenge: Report MIC for `C=CCn1cc(C(=O)O)c(=O)c2cc(F)c(CC#N)cc21`
Response given: 16

Challenge: Report MIC for `N#CCc1cc2c(cc1F)c(=O)c(C(=O)O)cn2Cc1ccccn1`
Response given: 8
